Recorded Total Cell Count for the following molecules
System: Fibroblast
ASSAY_DETAILS: Multiplex assay against human fibroblast
Format: toxicity, cell-based
CONDITION_SET: 48 h, 1 µM, compound concentration 1 uM, replicate 2
Field format: numeric only.

Observe how each entry below is paired with its result.
Return reported Total Cell Count; argument: Cc1csc2c(N[C@@H](C)CN3CCN(S(=O)(=O)c4ccc(Cl)c(Cl)c4)CC3)ncnc12 123

Can you handle CC(C)NCC(O)COc1ccc(CCOCC2CC2)cc1.Cl (stereo not drawn) [BETAXOLOL HYDROCHLORIDE] next? 157

Lookup CC[C@H](C)C(=O)O[C@H]1C[C@@H](C)C=C2C=C[C@H](C)[C@H](CC[C@@H]3C[C@@H](O)CC(=O)O3)[C@H]21 [LOVASTATIN] 69

Lookup COc1cc(-n2cnc3cc(-c4ccc(Cl)cc4)sc3c2=O)ccc1OCCN1CCCC1 160

Record: Cc1c(-c2ccc(O)cc2)n(Cc2ccc(OCCN3CCCCCC3)cc2)c2ccc(O)cc12 [BAZEDOXIFENE] 123

***
Name the reported Total Cell Count value associated with the molecule C=CC(=O)Nc1ccc2ncnc(Nc3ccc(OCc4cccc(F)c4)c(Cl)c3)c2c1.Cc1ccc(S(=O)(=O)O)cc1 106

One more molecule: CNc1nc(NCc2ccc(NS(C)(=O)=O)cc2Cl)cc(-c2ccccn2)n1 105

Query c1cn2cc(-c3ccc4cn[nH]c4c3)nc(Nc3ccc(N4CCOCC4)cc3)c2n1 [ENTOSPLETINIB] next 116

----------
# Growth Rate per record follows
System: U2OS
ASSAY_DETAILS: Incucyte cell viability with U2OS; also: filed as whole numbers so only -1 and 0 and 1 occur
Assay type: toxicity, cell-based
CONDITION_SET: human, 24 h, 10 µM, compound concentration 10 uM, replicate number 2, timepoint 24 hours
The reply should be a number, written without any unit.

Recorded results for 5 compounds are shown here.
Notebook: pull reported Growth Rate for U2OS, entry CC(=O)Nc1c(C(C)=O)c(=O)n(C)c2nc(-c3ccc(Cl)cc3Cl)c(-c3ccc(Cl)cc3)cc12 1

Next entry: O=C(Nc1cnc(Oc2ccc(F)cc2)nc1)N1CCc2ncccc2[C@@H]1c1ccc(F)cc1 1

Quick one: COc1ccc(C2(O)OC(=O)C(c3ccc4c(c3)OCO4)=C2Cc2cc(OC)c(OC)c(OC)c2)cc1 (stereo not drawn) 1

Consider next the compound O=c1nc(-c2ccccn2)sc2ccccc12 in the same way. 0

// same read-out, input: Cc1nc(-c2ccc(-c3ccc(C(=O)N4CCc5cc6c(cc54)C4(CCN(C)CC4)CO6)cc3)c(C)c2)no1 0

Others:
Provide the documented Growth Rate with U2OS as the system for Cc1cc(F)c(C(=O)Nc2cccc(-c3nncn3C(C)C)n2)cc1-n1cnc(C2CC2)c1 0

Also Cc1sc2c(c1C)C(c1ccc(Cl)cc1)=N[C@@H](CC(=O)OC(C)(C)C)c1nnc(C)n1-2 ? 1

What do you get for C[C@@H](c1cccc(CN)c1)n1cc(Cl)cc(C(N)=O)c1=N.Cl ? 0

----------
Test system: Fibroblast
ASSAY_DETAILS: Multiplex assay against human fibroblast
Assay type: toxicity, cell-based
CONDITION_SET: 48 h, 1 µM, compound concentration 1 uM, replicate 2
ENDPOINT: Population Mitochondria Different-Phenotype (%)
Reply with just the number (in %).

Reference set (2 entries):
Need Population Mitochondria Different-Phenotype (%) of COc1ncc(-c2ccc3nccc(-c4ccnnc4)c3c2)cc1NS(=O)(=O)c1ccc(F)cc1F , thanks. 3

Proceed to CNc1nc(NCc2ccc(NS(C)(=O)=O)cc2Cl)cc(-c2ccccn2)n1 2

Field: next compound
# Population Mitochondria Different-Phenotype (%) lookup, item Cn1cc(-c2[nH]c3cc(NC(=O)[C@H](N)C4CCCCC4)cc4c3c2C=NNC4=O)cn1 2

Just for reference, ChEMBL document CHEMBL4689842 is where these values come from.
